Ref: ChEMBL document CHEMBL3272297

Species: Ovis aries
Test name: Potency ratio, ratio of mescaline ED50 to compound ED50 for serotonin receptor in sheep umbilical artery assessed increase of mescaline-induced contraction
Assay type: tissue-based
Kindly state Ratio ED50 for each of the entries shown.
Please reply with the number alone, leaving off any unit.

Exam item: Sample COc1cc(CCN)cc(OC)c1OC(C)C — what was its Ratio ED50?
Marked response: 2.8

Exam item: Item COc1cc(CCN)cc(OC)c1OCc1ccccc1 has what recorded Ratio ED50?
Marked response: 3.04

Exam item: So what's the measured Ratio ED50 for this one? COc1cc(CCN)cc(OC)c1Br
Marked response: 7.57

Exam item: Requested field: Ratio ED50. Item: CCCCOc1c(OC)cc(CCN)cc1OC
Marked response: 1.27

Exam item: Using the record for CCCOc1c(OC)cc(CCN)cc1OC , report its Ratio ED50.
Marked response: 3.68

Exam item: Ratio ED50 lookup needed for CCOc1c(OC)cc(CCN)cc1OC , thanks.
Marked response: 2.06

----------
Test name: 1-Octanol-water partition coefficient, log P of the compound at pH 8
Assay type: physicochemical
Observed property: logD
// no unit string in output, number only

Exam item: Name the reported logD value associated with the compound COc1cc(CCN)cc(OC)c1OC [MESCALINE]
Marked response: 0.78

Exam item: Would you kindly share the measured logD for CCCOc1c(OC)cc(CCN)cc1OC ?
Marked response: 1.7

Exam item: What logD value was documented for this compound, CCOc1c(OC)cc(CCN)cc1OC ?
Marked response: 1.11

Exam item: Which logD is reported for this compound? COc1cc(CCN)cc(OC)c1OCc1ccccc1
Marked response: 2.4

Exam item: What does the data say about its logD? Entry: COc1cc(CCN)cc(OC)c1Br
Marked response: 2.03

Exam item: Quick check: logD of CCCCOc1c(OC)cc(CCN)cc1OC ?
Marked response: 2.32

Exam item: So what does the record say about logD for COc1cc(CCN)cc(OC)c1OC(C)C ?
Marked response: 1.52

----------
Species on record: Ovis aries
Test name: Agonist activity at serotonin receptor in sheep umbilical artery assessed increase of mescaline-induced contraction
Type: tissue-based
Could you please report measured ED50 for the items listed next?
The reply should be a number in ×10⁻⁷ M, with the unit left off.

Exam item: Recorded ED50 of COc1cc(CCN)cc(OC)c1Br , please.
Marked response: 1.85

Exam item: ED50 for COc1cc(CCN)cc(OC)c1OC(C)C ?
Marked response: 5

Exam item: Name the reported ED50 value associated with the molecule CCCOc1c(OC)cc(CCN)cc1OC
Marked response: 3.8

Exam item: Would you mind telling me what ED50 value was observed for COc1cc(CCN)cc(OC)c1OCc1ccccc1 ?
Marked response: 4.6

Exam item: # ED50 lookup, item CCOc1c(OC)cc(CCN)cc1OC
Marked response: 6.8
